Just for reference, patent USRE41149E1 is where these values come from.

# System: S. epidermidis, 56500
# Experiment summary: Antimicrobial activity (MIC), standard method of Nippon Kagakuryoho Gakkai
# Format: cell-based
# Applied conditions: S. epidermidis
What Antimicrobial activity (MIC) was measured for each of the following?

(Q) Given the compound NC1CN(c2c(F)cc3c(=O)c(C(=O)O)cn([C@@H]4C[C@@H]4F)c3c2Cl)CC12CC2 (relative stereo) [Compound 26bb] , what is its reported Antimicrobial activity (MIC)?
(A) <0.1 µg/mL

(Q) Given the compound NC1CN(c2c(F)cc3c(=O)c(C(=O)O)cn([C@@H]4C[C@@H]4F)c3c2Cl)CC12CCC2 (relative stereo) [Compound 58b] , what is its reported Antimicrobial activity (MIC)?
(A) <0.1 µg/mL

(Q) Given the compound Nc1c(F)c(N2CC(N)C3(CC3)C2)c(F)c2c1c(=O)c(C(=O)O)cn2[C@@H]1C[C@@H]1F (relative stereo) [Compound 56b] , what is its reported Antimicrobial activity (MIC)?
(A) <0.1 µg/mL
